biological target: T1, Anti-CD28 scFv (VH-linker 1-VL) (biotinylated (site not stated)); assay: phage binding ELISA on captured anti-CD28 scFv, wells pre-incubated with soluble CD28 (competitor);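 also: crude clonal phage supernatants added without washing, bound phage detected by HRP-conjugated anti-M13 antibody, control wells held blocking buffer alone instead of CD28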
T1 construct: biotinylated and captured on neutravidin coated plates in the phage ELISA
T1 sequence (scFv, as listed by the source): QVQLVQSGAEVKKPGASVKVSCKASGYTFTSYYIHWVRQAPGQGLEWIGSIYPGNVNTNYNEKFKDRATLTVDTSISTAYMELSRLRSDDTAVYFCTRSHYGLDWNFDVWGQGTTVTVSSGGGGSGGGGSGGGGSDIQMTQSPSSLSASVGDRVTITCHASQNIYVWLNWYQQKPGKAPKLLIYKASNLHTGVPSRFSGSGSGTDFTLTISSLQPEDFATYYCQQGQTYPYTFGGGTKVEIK
Endpoint Label: CD28 scFv signal in presence of CD28

- Binder: "MDYCPSYLWHECFA [Phage-380]"
  Number: 0.09
- Binder: "MDWCPFDMWADCFF [Phage-391]"
  Number: 0.215
- Binder: "MSWCPIDLWSECFA [Phage-340]"
  Number: 0.148
- Binder: "QHWCPRDMWNDCYA [Phage-412]"
  Number: 0.149
- Binder: "MTWCPAYLWHECFN [Phage-370]"
  Number: 0.139
- Binder: "MDWCPLFLWDQCFN [Phage-347]"
  Number: 0.264
- Binder: "MDWCPRLLWHECFN [Phage-357]"
  Number: 0.109
- Binder: "MDWCPRSLWAQCFY [Phage-364]"
  Number: 0.14
